B1: TNXB (parent)
chain: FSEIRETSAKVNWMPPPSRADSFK

variants of: B1; assay: protein stability index of a GFP-peptide fusion (GPS, HEK-293T) (PSI 1-6); higher = more stable; conditions: c terminus: a fixed tail appended;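 also: lentivirally expressed fusions sorted by FACS into six bins by GFP to DsRed ratio, PSI derived from sequencing read proportions per bin multiplied by bin number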
Catalogue of variants with associated protein stability index
Give only the figure.

mutation.name	test.result
W13H	3.61
D21L	3.06
A20G	3.24
R5N	3.79
S22K	3.58
M14G	3.63

Indicate its recorded protein stability index; the variant in question is S8Q
3.76

// fetch protein stability index given entry E3I
2.03

Return value of protein stability index for input E6S , no commentary.
2.64

Give protein stability index for P15I
2.18

Fill in protein stability index for record E6I
1.82
